Each entry below carries its reported pIC50.
Target system: MVD (δ-receptor) (Mus musculus)
Construct: The vas is then mounted under 0.5 g tension in a 5 ml organ bath; from tissue; host or cells: mouse vas deferens (Swiss Webster)
Experimental protocol: cell-based
Study conditions: inhibition of electrically evoked twitch of mouse vas deferens; read-out: MVD IC50
pIC50: −log10 of the molar value.
Quantity kind: pIC50

* NC(=O)[C@@H]1CSC[C@@H](NC(=O)[C@@H](N)Cc2ccc(O)cc2)C(=O)NCC(=O)N[C@@H](Cc2ccccc2)C(=O)N1 [Tyr-c[D-AlaL-Gly-Phe-L-AlaL]-NH2] | 9.27
* NC(=O)[C@H]1CSC[C@@H](NC(=O)[C@@H](N)Cc2ccc(O)cc2)C(=O)NCC(=O)N[C@@H](Cc2ccccc2)C(=O)N1 [Tyr-c[D-AlaL-Gly-Phe-D-AlaL]-NH2] | 8.78

====

The next entries give measured IC50 for UniProt:P41143.
Sequence (P41143 whole entry): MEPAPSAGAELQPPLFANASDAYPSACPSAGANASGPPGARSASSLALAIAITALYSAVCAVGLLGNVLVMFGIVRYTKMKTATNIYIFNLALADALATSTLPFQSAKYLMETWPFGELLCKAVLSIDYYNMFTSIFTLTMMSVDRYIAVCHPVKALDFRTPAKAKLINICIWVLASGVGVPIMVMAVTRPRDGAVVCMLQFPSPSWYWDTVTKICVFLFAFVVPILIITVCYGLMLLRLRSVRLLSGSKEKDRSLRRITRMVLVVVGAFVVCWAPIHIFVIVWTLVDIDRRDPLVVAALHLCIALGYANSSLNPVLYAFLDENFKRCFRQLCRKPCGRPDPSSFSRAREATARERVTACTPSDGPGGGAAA
Quantity kind: IC50 (nM)

- NC(=O)[C@@H]1CSC[C@@H](NC(=O)[C@@H](N)Cc2ccc(O)cc2)C(=O)NCC(=O)N[C@@H](Cc2ccccc2)C(=O)N1 [Tyr-c[D-AlaL-Gly-Phe-L-AlaL]-NH2]: 7
- N[C@@H](Cc1ccc(O)cc1)C(=O)N[C@@H]1CSC[C@@H](C(=O)O)NC(=O)[C@H](Cc2ccccc2)NC(=O)CNC1=O [Tyr-c[D-AlaL-Gly-Phe-L-AlaL]-OH]: 1

====

Target system: MVD (δ-receptor) (Mus musculus, UniProt P32300)
Construct: The vas is then mounted under 0.5 g tension in a 5 ml organ bath; from tissue; host or cells: mouse vas deferens (Swiss Webster)
Sequence (P32300 whole entry): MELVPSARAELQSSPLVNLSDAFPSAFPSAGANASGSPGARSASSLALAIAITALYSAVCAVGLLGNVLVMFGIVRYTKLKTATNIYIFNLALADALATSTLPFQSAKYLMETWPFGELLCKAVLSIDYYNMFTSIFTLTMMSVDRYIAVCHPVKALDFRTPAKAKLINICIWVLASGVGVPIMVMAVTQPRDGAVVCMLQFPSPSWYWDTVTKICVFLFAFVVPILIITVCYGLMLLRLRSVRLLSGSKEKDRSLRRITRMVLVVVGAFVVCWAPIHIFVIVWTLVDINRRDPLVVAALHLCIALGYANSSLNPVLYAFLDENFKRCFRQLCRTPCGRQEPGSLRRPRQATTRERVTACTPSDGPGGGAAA
Experimental protocol: cell-based
pIC50: −log10 of the molar value.
Quantity kind: pIC50

- N[C@@H](Cc1ccc(O)cc1)C(=O)N[C@@H]1CSC[C@@H](C(=O)O)NC(=O)[C@H](Cc2ccccc2)NC(=O)CNC1=O [Tyr-c[D-AlaL-Gly-Phe-L-AlaL]-OH]: 9.80

====

Target system: SSTR2 receptor
Experimental protocol: Inhibition of radioligand binding to cloned somatostatin receptor SSTR2
Study conditions: cloned receptor, radioligand binding; read-out: SSTR2 receptor binding constant IC50
pIC50: −log10 of the molar value.
Quantity kind: pIC50

* H-D-Phe-c[AlaLPhe-D-Trp-Lys-Thr-AlaL]-Thr-NH2 | 8.00
* H-D-Phe-c[AlaLPhe-D-Trp-Lys-Thr-AlaL]-Thr-ol | 8.30

====

Experimental protocol: Enzymatic degradation of enkephalin analogs (half-life)
Quantity kind: half-life

* NC(=O)[C@@H]1CSC[C@@H](NC(=O)[C@@H](N)Cc2ccc(O)cc2)C(=O)NCC(=O)N[C@@H](Cc2ccccc2)C(=O)N1 | 20.4 h
* NC(=O)[C@@H]1CSSC[C@@H](NC(=O)[C@@H](N)Cc2ccc(O)cc2)C(=O)NCC(=O)N[C@@H](Cc2ccccc2)C(=O)N1 [Disulfide-enkephalin, reference compound] | 5.53 h

====

Target system: SSTR4 receptor
Experimental protocol: Inhibition of radioligand binding to cloned somatostatin receptor SSTR4
Study conditions: cloned receptor, radioligand binding; read-out: SSTR4 receptor binding constant IC50
Each entry below carries its reported IC50.
Quantity kind: IC50 (nM)

- H-D-Phe-c[AlaLPhe-D-Trp-Lys-Thr-AlaL]-Thr-NH2: 0.5
- H-D-Phe-c[AlaLPhe-D-Trp-Lys-Thr-AlaL]-Thr-ol: 1
- H-D-Phe-c[AlaLPhe-D-Trp-Lys-Thr-AlaL]-OH: 500

Source of measurements: patent US6673769B2
